Catalogue of molecules with associated pIC50
- experimental system: UniProtKB P28221
- protocol summary: Displacement of [3H]5-HT from human 5-hydroxytryptamine 1D receptor expressed in CHO cells
- Assay type: cell-based
Keep in mind that pIC50 stands for -log10 of concentration in molar terms.

Reference set (3 entries):
molecule: CN(Cc1ccccc1)[C@H]1CCN(CCCc2c[nH]c3ccc(-n4cnnc4)cc23)C[C@H]1F
measured property: pIC50
observed result: 8.66
//
molecule: CN(Cc1ccccc1)[C@@H]1CCN(CCCc2c[nH]c3ccc(-n4cnnc4)cc23)C[C@@H]1F
measured property: pIC50
observed result: 7.89
//
molecule: Fc1cccc(CCN2CCN(CC(F)Cc3c[nH]c4ccc(-n5cnnc5)cc34)CC2)c1 (centres undefined)
measured property: pIC50
observed result: 8.43

--- query ---
query: Given OC[C@H](NC1CCN(CC(F)Cc2c[nH]c3ccc(-n4cnnc4)cc23)CC1)c1ccc(F)cc1 (some centres undefined) , state its recorded pIC50.
result: 8.85

* * *

- experimental system: 5-hydroxytryptamine receptor 1D (Homo sapiens)
- Sequence (P28221 whole entry): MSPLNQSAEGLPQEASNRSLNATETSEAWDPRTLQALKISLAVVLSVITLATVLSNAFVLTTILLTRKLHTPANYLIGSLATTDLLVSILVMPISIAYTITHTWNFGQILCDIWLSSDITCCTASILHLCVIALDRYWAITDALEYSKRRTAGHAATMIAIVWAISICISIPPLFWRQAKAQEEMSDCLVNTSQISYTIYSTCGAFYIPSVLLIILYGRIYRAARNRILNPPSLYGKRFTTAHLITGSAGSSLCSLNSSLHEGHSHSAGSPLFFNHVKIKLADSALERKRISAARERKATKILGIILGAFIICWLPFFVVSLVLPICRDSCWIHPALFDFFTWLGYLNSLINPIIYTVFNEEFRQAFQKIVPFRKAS
- protocol summary: Agonist induced [35S]GTP-gamma-S, binding in CHO cells expressing 5-HT 1d receptor
measured property: pEC50
Keep in mind that pEC50 stands for -log10 of concentration in molar terms.

Reference set (2 entries):
molecule: OC[C@H](NC1CCN(CC(F)Cc2c[nH]c3ccc(-n4cnnc4)cc23)CC1)c1ccc(F)cc1 (some centres not stated)
experimental system: 5-hydroxytryptamine receptor 1D (Homo sapiens)
pEC50: 8.77

molecule: Fc1cccc(CCC2(F)CCN(CCCc3c[nH]c4ccc(-n5cnnc5)cc34)CC2)c1
experimental system: 5-hydroxytryptamine receptor 1D (Homo sapiens)
pEC50: 8.29

query: Given Fc1cccc(CCN2CCN(CC(F)Cc3c[nH]c4ccc(-n5cnnc5)cc34)CC2)c1 (configuration not stated) , state its recorded pEC50.
result: 8.36

query: Given `FC1(Cc2ccccc2)CCN(CCCc2c[nH]c3ccc(-n4cnnc4)cc23)CC1` , state its recorded pEC50.
result: 9.30

query: Given `c1ccc(CC2CCN(CCCc3c[nH]c4ccc(-n5cnnc5)cc34)CC2)cc1` , state its recorded pEC50.
result: 9.22

query: Given CN(Cc1ccccc1)C1CCN(CC(F)Cc2c[nH]c3ccc(-n4cnnc4)cc23)CC1 (configuration not stated) , state its recorded pEC50.
result: 7.74

query: Given FC(Cc1c[nH]c2ccc(-n3cnnc3)cc12)CN1CCC(Cc2ccccc2)CC1 (configuration not stated) , state its recorded pEC50.
result: 7.96

* * *

- experimental system: Serotonin 1 receptors; 5-HT1B & 5-HT1D (Homo sapiens) (UniProt P28222+P28221)
- protocol summary: Relative binding to serotonin 5-HT1D and 5-HT1B receptors
- Type: protein assay
Catalogue of compounds with associated Selectivity
Respond numerically, and do not add a unit to the figure.

compound: FC(Cc1c[nH]c2ccc(-n3cnnc3)cc12)CN1CCC(Cc2ccccc2)CC1 (stereo not drawn)
experimental system: Serotonin 1 receptors; 5-HT1B & 5-HT1D (Homo sapiens) (UniProt P28222+P28221)
Selectivity: 65
--
compound: CN(Cc1ccccc1)C1CCN(CC(F)Cc2c[nH]c3ccc(-n4cnnc4)cc23)CC1 (stereo not drawn)
experimental system: Serotonin 1 receptors; 5-HT1B & 5-HT1D (Homo sapiens) (UniProt P28222+P28221)
Selectivity: 230
--
compound: Fc1cccc(CCC2(F)CCN(CCCc3c[nH]c4ccc(-n5cnnc5)cc34)CC2)c1
experimental system: Serotonin 1 receptors; 5-HT1B & 5-HT1D (Homo sapiens) (UniProt P28222+P28221)
Selectivity: 30

query: Lookup: Selectivity / Serotonin 1 receptors; 5-HT1B & 5-HT1D (Homo sapiens) (UniProt P28222+P28221) / `OC[C@H](NC1CCN(CCCc2c[nH]c3ccc(-n4cnnc4)cc23)CC1)c1ccc(F)cc1`
result: 206

query: Lookup: Selectivity / Serotonin 1 receptors; 5-HT1B & 5-HT1D (Homo sapiens) (UniProt P28222+P28221) / `Fc1cccc(CCN2CCN(CCCc3c[nH]c4ccc(-n5cnnc5)cc34)CC2)c1`
result: 125

query: Lookup: Selectivity / Serotonin 1 receptors; 5-HT1B & 5-HT1D (Homo sapiens) (UniProt P28222+P28221) / `c1ccc(CN2CCN(CCCc3c[nH]c4ccc(-n5cnnc5)cc34)CC2)cc1`
result: 40

query: Lookup: Selectivity / Serotonin 1 receptors; 5-HT1B & 5-HT1D (Homo sapiens) (UniProt P28222+P28221) / Fc1cccc(CCN2CCN(CC(F)Cc3c[nH]c4ccc(-n5cnnc5)cc34)CC2)c1 (stereo not drawn)
result: 324

query: Lookup: Selectivity / Serotonin 1 receptors; 5-HT1B & 5-HT1D (Homo sapiens) (UniProt P28222+P28221) / `CN(Cc1ccccc1)[C@@H]1CCN(CCCc2c[nH]c3ccc(-n4cnnc4)cc23)C[C@@H]1F`
result: 18

query: Lookup: Selectivity / Serotonin 1 receptors; 5-HT1B & 5-HT1D (Homo sapiens) (UniProt P28222+P28221) / `FC1(Cc2ccccc2)CCN(CCCc2c[nH]c3ccc(-n4cnnc4)cc23)CC1`
result: 16

query: Lookup: Selectivity / Serotonin 1 receptors; 5-HT1B & 5-HT1D (Homo sapiens) (UniProt P28222+P28221) / `c1ccc(CC2CCN(CCCc3c[nH]c4ccc(-n5cnnc5)cc34)CC2)cc1`
result: 57

query: Lookup: Selectivity / Serotonin 1 receptors; 5-HT1B & 5-HT1D (Homo sapiens) (UniProt P28222+P28221) / `CN(Cc1ccccc1)[C@H]1CCN(CCCc2c[nH]c3ccc(-n4cnnc4)cc23)C[C@H]1F`
result: 6

query: Lookup: Selectivity / Serotonin 1 receptors; 5-HT1B & 5-HT1D (Homo sapiens) (UniProt P28222+P28221) / OC[C@H](NC1CCN(CC(F)Cc2c[nH]c3ccc(-n4cnnc4)cc23)CC1)c1ccc(F)cc1 (stereo partly drawn)
result: 225

query: Lookup: Selectivity / Serotonin 1 receptors; 5-HT1B & 5-HT1D (Homo sapiens) (UniProt P28222+P28221) / `CN(Cc1ccccc1)C1CCN(CCCc2c[nH]c3ccc(-n4cnnc4)cc23)CC1`
result: 66
